In this section we review reported T/C values for a set of molecules.
# Tested on: L1210 leukemia ip in BDF1 mice, survival T/C
# EXPERIMENT SUMMARY: NCI In Vivo Anticancer Drug Screen. Data for tumor model L1210 Leukemia (intraperitoneal) in B6D2F1 (BDF1) mice
# CONDITION SUMMARY: endpoint: mean survival time; dose: 200.0 mg/kg/injection; schedule: Q01DX001 (ip); vehicle: other; higher = longer survival
Inconclusive results and toxic doses are left out.
MEASUREMENT KIND: T/C

[[record]]
chemical_structure = "CCOC(=O)CSCn1ncc2ccc([N+](=O)[O-])cc21"
result = "95 % of control"

[[record]]
chemical_structure = "Nn1cnc2c(=S)nc[nH]c21"
result = "102 % of control"

[[record]]
chemical_structure = "O=C(CCCC(=O)N/N=C/c1ccc(Cl)cc1)N/N=C\\c1ccc(Cl)cc1"
result = "91 % of control"

[[record]]
chemical_structure = "O=S(=O)(O)c1cccc2cccc(N=Nc3ccc(O)cc3)c12"
result = "103 % of control"

[[record]]
chemical_structure = "O=C(OCCN1CCCCCCCC1)C(c1ccccc1)c1ccccc1"
result = "90 % of control"


* * *

# Test system: L1210 leukemia ip in BDF1 mice, survival T/C
# EXPERIMENT SUMMARY: NCI In Vivo Anticancer Drug Screen. Data for tumor model L1210 Leukemia (intraperitoneal) in B6D2F1 (BDF1) mice
# CONDITION SUMMARY: endpoint: mean survival time; dose: 200.0 mg/kg/injection; schedule: Q01DX009 (ip); vehicle: Klucel (hydroxypropylcellulose) (HPC); higher = longer survival
# Method: The antitumor activity of compounds was measured in mice bearing transplantable tumors. Survival or tumor size were measured and the results are expressed as the measurement made in the treated group (T) divided by the measurement made in the vehicle treated control group (C). The tumor model used in this assay is L1210 Leukemia (intraperitoneal) in B6D2F1 (BDF1) mice
Inconclusive results and toxic doses are left out.
MEASUREMENT KIND: T/C

[[record]]
molecule = "CCOC(=O)c1ccc(NC(=O)NCCCCCCNC(=O)Nc2ccc(C(=O)OCC)cc2)cc1"
target = "L1210 leukemia ip in BDF1 mice, survival T/C"
result = "100 % of control"

[[record]]
molecule = "Cc1[nH][nH]c(=O)c1N=Nc1ccccc1"
target = "L1210 leukemia ip in BDF1 mice, survival T/C"
result = "98 % of control"

[[record]]
molecule = "Cc1ccc(NC(=S)N2CCOCC2)cc1C"
target = "L1210 leukemia ip in BDF1 mice, survival T/C"
result = "100 % of control"

[[record]]
molecule = "O=C(Nc1ccccc1O)c1ccc(Cl)c(Cl)c1"
target = "L1210 leukemia ip in BDF1 mice, survival T/C"
result = "107 % of control"

[[record]]
molecule = "CCCCCCCCCCCCCCCC(=O)NNC(C)C"
target = "L1210 leukemia ip in BDF1 mice, survival T/C"
result = "91 % of control"

[[record]]
molecule = "Cc1ccc(C)c(NC(=O)c2ccccc2N)c1"
target = "L1210 leukemia ip in BDF1 mice, survival T/C"
result = "93 % of control"

[[record]]
molecule = "N#C/C(=C\\c1cccc2ccccc12)c1ccccc1"
target = "L1210 leukemia ip in BDF1 mice, survival T/C"
result = "93 % of control"

[[record]]
molecule = "Cc1ccc(NC(=S)N(CCC#N)C(C)C)cc1C"
target = "L1210 leukemia ip in BDF1 mice, survival T/C"
result = "106 % of control"

[[record]]
molecule = "CCOc1ccc(C(=O)/C=C\\c2ccc(N(CC)CC)cc2)cc1"
target = "L1210 leukemia ip in BDF1 mice, survival T/C"
result = "93 % of control"

[[record]]
molecule = "COc1c(NC(=O)Nc2ccc(SC)cc2)cccc1[N+](=O)[O-]"
target = "L1210 leukemia ip in BDF1 mice, survival T/C"
result = "98 % of control"

[[record]]
molecule = "O=C(O)C1CCCCC1C(=O)Nc1cccc2ccccc12 (configuration not stated)"
target = "L1210 leukemia ip in BDF1 mice, survival T/C"
result = "96 % of control"

[[record]]
molecule = "CCOc1ccc(OCC)c(NC(=O)Nc2ccc(F)c([N+](=O)[O-])c2)c1"
target = "L1210 leukemia ip in BDF1 mice, survival T/C"
result = "93 % of control"

